Values from patent US10822315B2

- Tested on: MRSA ATCC BAA-44
- Assay info: Broth microdilution MIC determination
- Type: cell-based, Staphylococcus aureus
- Condition parameters: Staphylococcus aureus; MRSA ATCC BAA-44; Table 1; read-out: Antimicrobial Activity MIC
Value type: MIC (µg/mL)

Solved entries:
{"Molecule": "CCCCC(Cl)(Cl)C1NC(=O)/C(=C/c2ccc(C(F)(F)F)cc2)O1 (stereo not drawn)", "Val": 12}
{"Molecule": "C#CCC(Cl)(Cl)C1NC(=O)/C(=C/c2ccc(C(F)(F)F)cc2)O1 (stereo not drawn)", "Val": 16}
{"Molecule": "CC(Cl)(Cl)C1NC(=O)/C(=C/c2ccc(C(F)(F)F)cc2)O1 (stereo not drawn)", "Val": 32}
{"Molecule": "O=C1NC(C(Cl)(Cl)Cc2ccccc2)O/C1=C\\c1ccc(C(F)(F)F)cc1 (stereo not drawn)", "Val": 6}

I = CC(C)(C)C1NC(=O)/C(=C/c2ccc(C(F)(F)F)cc2)O1 (stereo not drawn)
II = CCCCC(Cl)(Cl)C1NC(=O)/C(=C/c2ccccc2)O1 (stereo not drawn)
III = CCCCCC1NC(=O)/C(=C/c2ccc(C(F)(F)F)cc2)O1 (stereo not drawn)
Ask: Highest MIC first, then in falling order down to the smallest. Provide your answer as the labels ordered per the instruction.
Reply: I, II, III
